Data credit: ChEMBL document CHEMBL1629485

For each of the molecules below, state its Activity.
- Tested on: MCF7
- experiment_notes: Cytotoxicity against human MCF7 cells expressing estrogen receptor assessed as LDH release at 10 uM
- Type: functional
Express your answer in %, writing the number without its unit.

Prompt: # query: Activity of entry COc1ccc(C2N(c3cc(OC)c(OC)c(OC)c3)C(=O)C2(C)C)cc1 (stereo not given)
Completion: 12

Prompt: # query: Activity of entry COc1cc(C2CC(=O)N2c2cc(OC)c(OC)c(OC)c2)cc(OC)c1OC (stereo not given)
Completion: 1.9

Prompt: # query: Activity of entry COc1ccc(N2C(=O)C(C)C2c2cc(OC)c(OC)c(OC)c2)cc1O (stereo not given)
Completion: 17

Prompt: # query: Activity of entry COc1ccc2cc(C3CC(=O)N3c3cc(OC)c(OC)c(OC)c3)ccc2c1 (stereo not given)
Completion: 13.5

Prompt: # query: Activity of entry COc1ccc(N2C(=O)CC2c2cc(OC)c(OC)c(OC)c2)cc1O (stereo not given)
Completion: 2.3

Prompt: # query: Activity of entry COc1ccc(N2C(=O)C(C)(C)C2c2cc(OC)c(OC)c(OC)c2)cc1O (stereo not given)
Completion: 11.5

Prompt: # query: Activity of entry COc1ccc(C2CC(=S)N2c2cc(OC)c(OC)c(OC)c2)cc1 (stereo not given)
Completion: 16

Prompt: # query: Activity of entry COc1ccc(C2C(C)C(=O)N2c2cc(OC)c(OC)c(OC)c2)cc1OC (stereo not given)
Completion: 7.5

Prompt: # query: Activity of entry COc1cc(N2C(=O)CC2c2cccs2)cc(OC)c1OC (stereo not given)
Completion: 20

Prompt: # query: Activity of entry COc1ccc(C2C(C)C(=O)N2c2cc(OC)c(OC)c(OC)c2)cc1 (stereo not given)
Completion: 5.7
